These entries and their values trace back to patent US20240000872A1.

Test system: Acinetobacter baumannii strains
Experiment: Antibiotic susceptibility test (CLSI disk diffusion test method, read per CLSI 2016)
Assay type: cell-based
Settings: host strain YMC14/01/R905
Procedure: Strain identification was performed using a kit such as AT 32 GN system (bioMérieux, Marcy l'Etoile, France). […] In Table 2 below, S, I, and R are the results obtained by evaluating susceptibility to the antibacterial agents, in which ‘S’ means susceptible, ‘I’ means intermediate, and ‘R’ means resistant. Strain identification was performed using a kit such as ATB 32 GN system (bioMédrieux, Marcy l'Etoile, France). […]
READOUT_TYPE: antibiotic susceptibility class

CO/N=C(\C(=O)N[C@@H]1C(=O)N2C(C(=O)O)=C(COC(C)=O)CS[C@H]12)c1csc(N)n1: R
C[C@@H](O)[C@H]1C(=O)N2C(C(=O)O)=C(SCCN=CN)C[C@H]12: R
CN(C)c1ccc(O)c2c1C[C@H]1C[C@H]3[C@H](N(C)C)C(O)=C(C(N)=O)C(=O)[C@@]3(O)C(O)=C1C2=O: I
C[C@H]1COc2c(N3CCN(C)CC3)c(F)cc3c(=O)c(C(=O)O)cn1c23: R
